# Tested on: DMS-114
# assay-overview: NCI tumour cell line growth inhibition, 48 h
Calls of active or inactive are those of the source. No stated cut-off is given here; in the data, active = GI50 up to about 1.1 µM and inactive = higher.
Possible outcomes: active, inactive

INSERT INTO measurements (compound, class_assignment) VALUES
  ('CCCCCCCCCCCCCCCCOC(=O)c1cc(O)cc(C(=O)OCCCCCCCCCCCCCCCC)c1', 'inactive'),
  ('CC(c1ccccc1)N1O[C@]12CC[C@@]1(C)C(CCCC13OCCO3)C2 (some centres undefined)', 'inactive'),
  ('CCCCCCCSCC1C(=O)C23C(O)C1CCC2C12COC3(O)C(O)C1C(C)(C)CCC2O (centres undefined)', 'inactive'),
  ('CCCCOC(=O)N[C@H]1CCc2cc(OC)c(OC)c(OC)c2-c2ccc(SC)c(=O)cc21', 'active'),
  ('CC1=C(C(=O)Nc2ccc(Cl)c(Cl)c2)C(c2ccco2)C(C(=O)Nc2ccc(Cl)c(Cl)c2)=C(C)N1', 'inactive'),
  ('O=C(OC[C@H]1O[C@@H](OC(=O)c2cc(O)c(O)c(O)c2)[C@H](OC(=O)c2cc(O)c(O)c(O)c2)[C@@H](OC(=O)c2cc(O)c(O)c(O)c2)[C@@H]1OC(=O)c1cc(O)c(O)c(O)c1)c1cc(O)c(O)c(O)c1', 'inactive'),
  ('Oc1ccccc1-c1cnnc(-c2ccccc2O)c1', 'inactive'),
  ('CC(=O)OCC1OC(n2cc(I)c(=O)[nH]c2=O)C(OC(C)=O)C(OC(C)=O)C1OC(C)=O (centres undefined)', 'inactive'),
  ('CCOC(=O)NC(=O)c1cn(CCSCCOC(=O)NCCCCCCNC(=O)OCCSCCn2cc(C(=O)NC(=O)OCC)c(=O)[nH]c2=O)c(=O)[nH]c1=O', 'inactive'),
  ('Cc1c(C)c2cc3c(=O)ccoc3c(C)c2oc1=O', 'inactive'),
  ('O=C1CC2CCCC23CC2(CCN13)OCCO2 (centres undefined)', 'inactive'),
  ('CCSC1=CC(Cc2ccc(OC)cc2)N(C(=O)OC)C1 (centres undefined)', 'inactive'),
  ('COc1ccc([C@@H]2CC(=O)NCCCCNCCCN2)cc1', 'inactive'),
  ('C=C(CS(=O)(=O)c1ccccc1)C(=O)OCC', 'inactive');
